This collection of values is drawn from patent US8178506B2.

Measured GLUT4 mRNA by item
tested on: Glut4; assay: Glut4 mRNA expression in adipocytes (real-time PCR); type: cell-based, human; conditions: differentiating adipocytes transfected with oligomeric compound; Table 75
In the oligonucleotide strings, read from the 5' end, every base follows the letter of its sugar. An asterisk marks phosphorothioate; unmarked linkages are phosphodiester. Other units and linkages are bracketed, terminal groups are in braces. A string of capitals states the bases alone. e = 2'-O-(2-methoxyethyl) (MOE); [5mC] = 5-methylcytosine
MEASURED_QUANTITY: GLUT4 mRNA

SUBSTANCE | VALUE_OBSERVED
327906 (antisense eT*e[5mC]*eA*eT*eA*eG*e[5mC]*e[5mC]*e[5mC]*eT*eG*eT*eA*e[5mC]*eA*eA*eT*eG*e[5mC]*eT*eG*e[5mC]*eT) [compound 327906] | 14 percentage of untreated control (UTC)
341797 (antisense ACAAGUGCCUUCACUGCAGU; all 2'-MOE, all phosphorothioate, methylation of C and T or U not given here) [compound 341797] | 17 percentage of untreated control (UTC)
340343 (antisense ACAGGAGUCUGAGCAUUUGA; all 2'-MOE, all phosphorothioate, methylation of C and T or U not given here) [compound 340343] | 33 percentage of untreated control (UTC)
327962 (antisense eG*e[5mC]*eT*eG*eA*eG*eA*eG*eT*eG*eT*eA*eG*eG*eA*eT*eG*eT*eT*eT*eA*e[5mC]*eA) [compound 327962] | 58 percentage of untreated control (UTC)
